molecular target: prostasin (Homo sapiens, UniProt Q16651); construct: eliminate the N-terminal signal peptide domain and light chain and the C-terminal GPI signal domain; honeybee melittin signal peptide (21 aa) (N); made in house; host or cells: Sf9 insect cells, baculovirus (Bac-to-Bac, pFastBac1); test: Assays with transition metals, prostasin activity with Ac-KHYR-acmc; assay type: biochemical; settings: assays with KHYR substrate
Sequence (Q16651 45-322 limits assumed): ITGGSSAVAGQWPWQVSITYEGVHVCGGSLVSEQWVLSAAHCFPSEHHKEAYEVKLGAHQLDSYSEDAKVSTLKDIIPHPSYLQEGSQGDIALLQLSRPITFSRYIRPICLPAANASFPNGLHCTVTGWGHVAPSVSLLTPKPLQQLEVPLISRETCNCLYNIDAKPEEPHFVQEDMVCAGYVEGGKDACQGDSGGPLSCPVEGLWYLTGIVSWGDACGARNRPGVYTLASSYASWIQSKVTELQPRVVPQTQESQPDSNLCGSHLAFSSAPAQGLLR
Provide the reported increases in IC50 values of each item.
Kindly answer with a numeric value in fold, unit omitted.

Look at this compound and give its reported increases in IC50 values. [Zn+2]
200

Try [Co+2] next.
10

Try [Ni+2] next.
100

Try [Cu+2] next.
25

Entry source: patent US20050222383A1
